# experimental target: human CB2 receptor (Homo sapiens, UniProt P34972)
# Construct: host or cells: CHO-K1 (Chinese hamster ovary) cells, stably transfected; membranes prepared in house
# Sequence (P34972 whole entry): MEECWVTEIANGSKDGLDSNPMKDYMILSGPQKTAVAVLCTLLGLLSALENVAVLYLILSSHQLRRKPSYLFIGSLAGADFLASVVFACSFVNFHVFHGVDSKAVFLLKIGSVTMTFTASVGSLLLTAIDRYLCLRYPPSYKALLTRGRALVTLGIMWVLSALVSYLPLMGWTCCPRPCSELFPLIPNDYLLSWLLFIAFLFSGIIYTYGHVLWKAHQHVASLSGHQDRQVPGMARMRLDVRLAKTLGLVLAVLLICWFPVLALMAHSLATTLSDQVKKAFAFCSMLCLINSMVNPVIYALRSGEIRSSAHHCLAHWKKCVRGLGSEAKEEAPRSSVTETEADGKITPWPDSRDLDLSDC
# test: CB2 radioligand ([3H]CP 55,940) competitive binding assay
# experimental parameters: fold difference in binding affinity, CB2 over CB1; 1.00 = about the same affinity for both receptors
Please provide measured Selectivity CB2 for the entries that follow.
Answers are plain numbers, in fold.

Recorded Selectivity CB2, per entry:
CCCCCc1cc(O)c(-c2cccc(C)c2)c2c1C(=O)OC(CC(C)=O)(c1ccccc1)O2 (stereo not drawn) [Compound 12a]    1.53
C=C(C)[C@@H]1CCC(C)=C[C@H]1c1c(O)cc(CCC)c2c1OC(CC(C)=O)(c1ccccc1)OC2=O (stereo partly drawn) [Compound 24d]    1.00
C=C(C)[C@@H]1CCC(C)=C[C@H]1c1c(O)cc(CCCCC)c2c1OC(CC(C)=O)(c1ccccc1)OC2=O (stereo partly drawn) [Compound 12d]    1.00
C=C(C)[C@@H]1CCC(C)=C[C@H]1c1c(O)cc(CCCCC)c2c1OC(CC(C)=O)OC2=O (stereo partly drawn) [Compound 14d]    4.92
CCCCCc1cc(O)c(C2C=C(C)CCC2)c2c1C(=O)OC1(CCCC1)O2 (stereo not drawn)    3.32
CCCCCc1cc(O)c(-c2cccc(C)c2)c2c1C(=O)OC(C)(C)O2    3.08
C=C(C)C1CCC(C)=CC1c1c(O)cc(CCCCC)c2c1OC(C)(CC(C)=O)OC2=O (stereo not drawn)    13.33
C=C(C)[C@@H]1CCC(C)=C[C@H]1c1c(O)cc(CCCCC)c2c1OC(C)(COC)OC2=O (stereo partly drawn) [Compound 11d]    1.89
C=C(C)[C@@H]1CCC(C)=C[C@H]1c1c(O)cc(CCCCC)c2c1OC(CC)OC2=O (stereo partly drawn) [Compound 17d]    4.35
C=C(C)[C@@H]1CCC(C)=C[C@H]1c1c(O)cc(CCC)c2c1OCOC2=O [Compound 23d]    1.00

For each of the items listed, what is its Selectivity CB2?
1. C=C(C)[C@@H]1CCC(C)=C[C@H]1c1c(O)cc(CCCCC)c2c1OC(C)OC2=O (stereo partly drawn) [Compound 16d]
2. CCCCCc1cc(O)c(C2C=C(C)CCC2)c2c1C(=O)OC(CC(C)=O)O2 (stereo not drawn) [Compound 14c]
3. CCCCCc1cc(O)c(C2C=C(C)CCC2)c2c1C(=O)OC(CC(C)=O)(c1ccccc1)O2 (stereo not drawn) [Compound 12c]
4. C=C(C)[C@@H]1CCC(C)=C[C@H]1c1c(O)cc(CCCCC)c2c1OCOC2=O
5. C=C(C)[C@@H]1CCC(C)=C[C@H]1c1c(O)cc(CCCCC)c2c1OC(C)(C)OC2=O

2.44
2.06
1.37
1.00
2.00

###

Please provide measured pIC50 for the entries that follow.
# experimental target: human CB1 receptor (Homo sapiens, UniProt P21554)
# Construct: host or cells: CHO-K1 (Chinese hamster ovary) cells, stably transfected; membranes prepared in house
# Sequence (P21554 whole entry): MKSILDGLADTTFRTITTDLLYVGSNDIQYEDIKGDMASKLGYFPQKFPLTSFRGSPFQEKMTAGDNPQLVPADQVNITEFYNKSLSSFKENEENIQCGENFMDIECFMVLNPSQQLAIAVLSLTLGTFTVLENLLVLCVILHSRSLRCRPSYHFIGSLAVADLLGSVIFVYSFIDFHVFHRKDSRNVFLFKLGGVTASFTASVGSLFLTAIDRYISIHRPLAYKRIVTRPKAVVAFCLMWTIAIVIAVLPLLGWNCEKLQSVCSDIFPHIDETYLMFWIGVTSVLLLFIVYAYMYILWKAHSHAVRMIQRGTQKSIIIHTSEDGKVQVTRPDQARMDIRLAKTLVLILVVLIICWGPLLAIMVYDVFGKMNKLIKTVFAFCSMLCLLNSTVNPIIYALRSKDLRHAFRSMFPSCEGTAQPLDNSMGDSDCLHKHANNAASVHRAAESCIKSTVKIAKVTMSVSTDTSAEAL
# test: CB1 radioligand ([3H]CP 55,940) competitive binding assay
# experimental parameters: [3H]CP 55,940 displacement, membranes of CHO-K1 cells expressing human CB1 receptor; read-out: CB1 IC50
pIC50: −log10 of the molar value.

Recorded pIC50, per entry:
CCCCCc1cc(O)c(-c2cccc(C)c2)c2c1C(=O)OC(C)(C)O2 [Compound 2a]    4.70 to 5.00
C=C(C)[C@@H]1CCC(C)=C[C@H]1c1c(O)cc(CCCCC)c2c1OC(C)(C)OC2=O [Compound 2d]    < 4.70
C=C(C)[C@@H]1CCC(C)=C[C@H]1c1c(O)cc(CCCCC)c2c1OCOC2=O [Compound 1d]    5.00 to 6.00
C=C(C)[C@@H]1CCC(C)=C[C@H]1c1c(O)cc(CCCCC)c2c1OC(CC)OC2=O (some centres unmarked) [Compound 17d]    5.00 to 6.00

For each of the items listed, what is its pIC50?
1. CCCCCc1cc(O)c(C2C=C(C)CCC2)c2c1C(=O)OC(CC(C)=O)O2 (centres unmarked) [Compound 14c]
2. C=C(C)C1CCC(C)=CC1c1c(O)cc(CCCCC)c2c1OC(c1ccccc1)OC2=O (centres unmarked) [Compound 3d]
3. C=C(C)[C@@H]1CCC(C)=C[C@H]1c1c(O)cc(CCC)c2c1OCOC2=O [Compound 23d]
4. C=C(C)[C@@H]1CCC(C)=C[C@H]1c1c(O)cc(CCCCC)c2c1OC(CC(C)=O)OC2=O (some centres unmarked) [Compound 14d]

5.00 to 6.00
> 6.00
5.00 to 6.00
4.70 to 5.00

# credit: patent US20220242844A1
